# measured_target: T1, human CTLA-4 (human, UniProt P16410 36-161, limits assumed)
# T1 construct: also called HuCTLA-4; human cytotoxic T lymphocyte antigen-4
# T1 sequence: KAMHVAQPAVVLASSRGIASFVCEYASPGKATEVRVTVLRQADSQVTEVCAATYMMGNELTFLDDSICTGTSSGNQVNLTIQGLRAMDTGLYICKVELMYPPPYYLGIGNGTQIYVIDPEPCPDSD
# method: ligand blocking assay with purified proteins; competitor CD86
I'd be grateful if you could share measured pIC50 for these entries.
Scale note: pIC50 = -log10(concentration in M).

Problem: Name the recorded pIC50 for MAb A3 (32G12D2) (antibody, V domains shown, also called murine antibody A3) VH: QVQLQQPGAELVRPGSSVKLSCKASGYTFTSYWMHWVKQRPIQGLEWIGNIDPSDSETHYNQNFKDKATLTVDKSSSTAYLQLSSLTSEDSAVYYCARRYTSSSFDYWGQGTTLTVSS VL: DIQMTQTTSSLSASLGDRVTVSCRASQDIRNYLNWYQQKPDGTVKLLIYFTSKLHSGVPSRFSGSGSGTDYFLAISNLEQEDIATYFCQQGNTLPYTFGGGTKLEIK .
Result: 9.43

Problem: And for MAb A2 (7G10D3) (antibody, V domains shown, also called murine antibody A2) VH: QIQLVQSGPELKKPGETVKISCKASGYTFTTYGMSWVKQTPGKGLKWMGWINTYSGVPTYADDFKGRFAFSLETSASTAYLQINNLKNEDTATYFCARGRDYYGSSYRLFGVWGTGTTVTVSS VL: DIQMTQTTSSLSASLGDRVTISCRASQDISNYLNWYQQKPDGTVKLLIYYTSILNSGVPSKFSGSGSGTDYSLTISNLEQEDIATYFCQQGNTLPWTFGGGTKLEIK ?
Result: 8.79
